- experiment_notes: chemical genetic growth profiling, strain panel (AID 1159580);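 further: tested at 20 µM; growth read once vehicle control cultures reached saturation at 30 °C; 1 = growth at the plate median or of vehicle wells; lower values mean less growth of the strain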
- experimental_parameters: S. cerevisiae deletion strains, growth OD, locus YPR025C, strain CCL1, active compounds read low
Out of some 5,500 compounds screened, about 2,000 (36%) were called active. Inconclusive results (about 18%) are left out. Some of the results follow.
metric: normalized growth
Numbers only.

Answered examples (5):
FC(F)(F)c1cccc(NNC(=S)Nc2ccccc2)c1	1
FC(F)(F)c1cccc(NC(=S)Nc2ccccc2)c1	0.982
Fc1cccc(F)c1NC(=S)Nc1cc(C(F)(F)F)cc(C(F)(F)F)c1	0.982
NC(=Nc1ccc(F)cc1)SCc1c(Cl)cccc1Cl	0.98
O=C(Nc1ccc(C(F)(F)F)cc1)N1CCN(c2ccnc3cc(Cl)ccc23)CC1	0.983

Next item in the queue.
[ask] Which normalized growth reading was recorded for the compound `Cc1cccc(Cl)c1/C=N\NC(N)=S` ?
[reply] 0.914

---

- experiment_notes: chemical genetic growth profiling, strain panel (AID 1159580);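 further: tested at 20 µM; growth read once vehicle control cultures reached saturation at 30 °C; 1 = growth at the plate median or of vehicle wells; lower values mean less growth of the strain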
- experimental_parameters: S. cerevisiae deletion strains, growth OD, locus YAL030W, strain snc1
Screen size: about 5,500 compounds; about 2,000 (36%) were called active. Inconclusive results (about 18%) are left out. No stated cut-off is given here; in the data, active means normalized growth mostly below about 0.91 (no sharp cut-off); inconclusive means no clear call, values can overlap the other calls; inactive means mostly above about 0.92. The list shows a part of the results.
Parameter call: string, one of active, inactive

Would you please look over these solved cases?
N[C@@H](Cc1ccc(O)c(O)c1)C(=O)O	inactive
CC1(C)CCCC2(C)C3C1[C@@H](O)C2(C)C[C@H]3O (stereo partly specified)	inactive
C=CC(C)(O)CC/C=C(\C)CCC=C(C)C (stereo unspecified)	inactive

[ask] Test call for this compound, please: `CC(C)=CCC/C(C)=C/CC/C(C)=C/CC/C(C)=C/CC/C(C)=C/CC/C(C)=C/CC/C(C)=C/CC/C(C)=C/CC/C(C)=C/CO`
[reply] inactive

[ask] Recorded call for CCCC1O[C@@H]2CC3C4CCC5=CC(=O)C=CC5(C)C4[C@@H](O)CC3(C)[C@]2(C(=O)CO)O1 (stereo partly specified) ?
[reply] inactive

[ask] What outcome does the record of this test show for `Cc1occc(=O)c1O` ?
[reply] inactive

[ask] Short answer needed: outcome of this test for CC(=O)c1c(O)c(C)c(O)c2c1OC1=CC(=O)C(C(C)=O)C(=O)C12C (stereo unspecified) ?
[reply] inactive

[ask] Which outcome was entered for the compound O=C1O[C@H](C(O)CO)C(O)=C1O (stereo partly specified) in this test?
[reply] inactive

[ask] State the result this test recorded for O=C1C=CC2=C3c4cc(O)c(O)cc4CC3(O)COC2=C1O (stereo unspecified) .
[reply] inactive

[ask] Identify the outcome logged in this assay for the compound shown: `O[N+]1=CC=CCC1=S.On1ccccc1=S.[Zn]`
[reply] active

[ask] For CC(C)=CCC[C@](C)(O)C1CC=C(C)CC1 (stereo partly specified) , which call appears in the assay record?
[reply] inactive

---

- experiment_notes: chemical genetic growth profiling, strain panel (AID 1159580);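 further: tested at 20 µM; growth read once vehicle control cultures reached saturation at 30 °C; 1 = growth at the plate median or of vehicle wells; lower values mean less growth of the strain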
- experimental_parameters: S. cerevisiae deletion strains, growth OD, locus YNL067W, strain RPL9B, active compounds read low
Among all 5,500 compounds or so, about 2,000 (36%) were called active. About 18% were inconclusive and are not listed. The list shows a part of the results.
metric: normalized growth
One number for each entry.

Take a look at these entries with their results.
CC1(C)C(O)CC(O)C2(C)C1CC(=O)C1(C)C2CCC2(C)C(C(=O)O)OC(=O)C3OC321 (stereo not given)	1.02
CC(C)NCC(O)c1ccc(O)c(O)c1 (stereo not given)	1.01
NCC(O)c1ccc(O)cc1 (stereo not given)	0.991
CC(=O)O[C@H]1C[C@@H](OC(C)=O)C(C)(C)C2C[C@@H](OC(C)=O)[C@@]3(C)C4=CC(=O)O[C@@H](c5ccoc5)[C@]4(C)CCC3[C@]21C (stereo not given in full)	1.01
Nc1ccc(S(=O)(=O)Nc2ccc(Cl)nn2)cc1	0.983
CCCCC1(COC(=O)CCC(=O)O)C(=O)N(c2ccccc2)N(c2ccccc2)C1=O	0.998
CC(=O)O[C@@H]1CC2C(C)(C)C(=O)CC[C@]2(C)C2CC[C@]3(C)C(=CC(=O)O[C@H]3c3ccoc3)[C@@]21C (stereo not given in full)	1.04
CC(C)=CCC[C@](C)(O)C1CC=C(C)CC1 (stereo not given in full)	1.01

Consider the following items and state reported normalized growth for each.
1. CS(=O)(=O)CCCCN=C=S
2. CNC[C@@H](O)c1ccc(O)c(O)c1

[reply]
0.779
0.992
